Measured kon values are reported for all entries that follow.
- targetOrSystem: T1, CD70 ECD (antigen immobilized on the CM5 chip) (UniProt P32970 39-193)
- T1 construct: extracellular domain; also called CD70 antigen
- T1 sequence (looked up): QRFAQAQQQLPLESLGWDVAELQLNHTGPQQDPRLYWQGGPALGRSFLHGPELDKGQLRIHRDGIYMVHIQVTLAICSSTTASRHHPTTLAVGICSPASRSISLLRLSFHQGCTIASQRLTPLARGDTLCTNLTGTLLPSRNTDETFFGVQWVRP
- test: SPR (Biacore T200), CD70 ECD on CM5 chip, IgG as analyte
Please respond with the number in M⁻¹ s⁻¹ and leave the unit unwritten.

Worked examples, 2 binders total:
binder: 2E7, full IgG (antibody, V domains shown) VH: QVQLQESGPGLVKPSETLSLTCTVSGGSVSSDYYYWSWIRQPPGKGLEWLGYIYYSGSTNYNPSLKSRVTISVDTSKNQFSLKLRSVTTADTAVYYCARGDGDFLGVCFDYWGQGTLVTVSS VL: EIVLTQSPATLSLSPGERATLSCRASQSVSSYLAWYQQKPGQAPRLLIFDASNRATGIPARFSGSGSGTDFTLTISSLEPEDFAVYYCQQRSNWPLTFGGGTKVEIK
kon / M⁻¹ s⁻¹: 75400

binder: 2A4P0L1, full IgG (antibody, V domains shown) VH: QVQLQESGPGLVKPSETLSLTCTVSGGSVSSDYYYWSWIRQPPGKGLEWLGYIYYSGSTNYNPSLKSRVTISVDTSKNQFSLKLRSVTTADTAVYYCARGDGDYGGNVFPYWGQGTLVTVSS VL: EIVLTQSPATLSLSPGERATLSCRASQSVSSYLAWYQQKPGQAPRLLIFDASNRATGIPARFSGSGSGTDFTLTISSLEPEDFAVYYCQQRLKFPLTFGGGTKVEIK
kon / M⁻¹ s⁻¹: 51000

Recorded kon (binder 1H8, full IgG (antibody, V domains shown) VH: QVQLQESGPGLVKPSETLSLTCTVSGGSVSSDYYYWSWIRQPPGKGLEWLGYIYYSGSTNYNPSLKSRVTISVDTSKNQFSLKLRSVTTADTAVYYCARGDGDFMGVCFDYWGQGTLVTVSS VL: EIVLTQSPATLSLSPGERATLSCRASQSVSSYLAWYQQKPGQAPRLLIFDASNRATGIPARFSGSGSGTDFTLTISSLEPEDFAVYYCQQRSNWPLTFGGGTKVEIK ): 25600
